// provenance: paper PMC12133982

- Tested target: HLA-C0401 (Homo sapiens, UniProt P10321, A176E/A330V/A35S/A73E/C25G/C350S/D138N/D33S/E299K/L171W/L180R/L218V/M285V/M309V/M331V/N104K/P208H/Q277E/Q291P/R243W/R38W/S101N/S123F/S140F/S297R/S48A/T329A/T363A/V319A/V327M)
- Assay info: Competitive peptide binding assay, CIR-C0401
- Run parameters: HMy2.CIR-C0401 cells, reference Cy5-[…], class from inhibition at 5 and 15 μM, flow cytometry MFI; read-out: Binding affinity with HLA-C0401
pIC50: −log10 of the molar value. Peptide text beside a SMILES is read from it.
Metric name: pIC50

CC[C@H](C)[C@H](NC(=O)[C@@H](NC(=O)[C@H](CC(N)=O)NC(=O)[C@H](CCCNC(=N)N)NC(=O)[C@H](CCCCN)NC(=O)[C@@H](NC(=O)[C@H](Cc1ccc(O)cc1)NC(=O)[C@H](C)NC(=O)[C@@H](N)Cc1ccccc1)[C@@H](C)O)C(C)C)C(=O)O [Epitope M23] (H-FAYTKRNVI-OH; N-terminus and C-terminus assumed) :: < 4.82

Consider the compound CC(C)C[C@H](NC(=O)[C@@H](NC(=O)[C@H](CCCNC(=N)N)NC(=O)[C@H](CO)NC(=O)[C@@H](NC(=O)[C@H](C)NC(=O)[C@@H](N)C(C)C)[C@@H](C)O)[C@@H](C)O)C(=O)N[C@@H](CO)C(=O)N[C@@H](Cc1ccc(O)cc1)C(=O)O [Epitope M72] (H-VATSRTLSY-OH; N-terminus and C-terminus assumed) and give its measured pIC50.
< 4.82

Consider the compound CC[C@H](C)[C@H](NC(=O)[C@H](C)NC(=O)[C@H](CC(C)C)NC(=O)[C@@H](NC(=O)[C@@H](N)C(C)C)[C@@H](C)O)C(=O)N[C@@H](CC(C)C)C(=O)N[C@H](C(=O)N[C@@H](C)C(=O)N[C@@H](CC(C)C)C(=O)O)[C@@H](C)O [Epitope M3, VTLAILTAL] (H-VTLAILTAL-OH; N-terminus and C-terminus assumed) and give its measured pIC50.
> 5.30
